- Tested on: P388 leukemia ip, CD2F1 mice, survival T/C
- EXPERIMENT SUMMARY: NCI In Vivo Anticancer Drug Screen. Data for tumor model P388 Leukemia (intraperitoneal) in CD2F1 (CDF1) mice
- CONDITION INFO: endpoint: median survival time; dose: 120.0 mg/kg/injection; schedule: Q01DX005 (ip); vehicle: saline with Tween-80; higher = longer survival
Inconclusive results and toxic doses are left out.
Each entry below carries its reported T/C.

CCN(CC)C(=O)N1C=CC(C)C=C1; 101 % of control
COCCOC(=O)Nc1c(Cl)cccc1Cl; 100 % of control
O=C(Nc1ccc(Cl)cc1)Nc1nnc(COc2ccc(Cl)c(Cl)c2)o1; 98 % of control
CC1=C(C#N)C(=O)OC1(C)C(CC(=O)c1ccccc1)c1ccccc1 (stereo unspecified); 87 % of control

Moving on to the next compound.
What T/C value was documented for this compound, COC1OC(C(C)O)C2OC(C)(C)OC12 (stereo unspecified) ?
108 % of control

---

- Test system: P388 leukemia ip, CD2F1 mice, survival T/C
- EXPERIMENT SUMMARY: NCI In Vivo Anticancer Drug Screen. Data for tumor model P388 Leukemia (intraperitoneal) in CD2F1 (CDF1) mice
- CONDITION INFO: endpoint: median survival time; dose: 120.0 mg/kg/injection; schedule: Q01DX005 (ip); vehicle: saline with Tween-80; higher = longer survival
Toxic doses and inconclusive results are not listed.
T/C values by entry

Record excerpt, results attached:
NCCn1[nH]c(=O)c2ncccc2c1=O; 105 % of control
COc1cc2cc(-c3ccccn3)nc(N)c2cc1OC; 101 % of control
CCOC(=O)C1=C(C)/C(=C\c2[nH]c(C)c(C(=O)OCC)c2C)N=C1C; 94 % of control
O=C1CCC(c2nc3ccccc3[nH]2)N1Cc1ccc(Cl)cc1 (stereo unspecified); 90 % of control
Brc1cc(Br)cc(CN2CCOCC2)c1; 100 % of control

Consider the molecule shown here: N=c1c2ccccc2cc2c3ccccc3ccn12 What is its recorded T/C?
99 % of control

---

- Test system: P388 leukemia ip, CD2F1 mice, survival T/C
- EXPERIMENT SUMMARY: NCI In Vivo Anticancer Drug Screen. Data for tumor model P388 Leukemia (intraperitoneal) in CD2F1 (CDF1) mice
- CONDITION INFO: endpoint: median survival time; dose: 200.0 mg/kg/injection; schedule: Q01DX005 (ip); vehicle: saline; higher = longer survival
Toxic doses and inconclusive results are not listed.
ATTRIBUTE MEASURED: T/C

NC(N)=NC(N)=NCCS(=O)(=O)O; 117 % of control

Any idea what T/C was measured for CCc1c(O)sc2c(c1=O)C(=NCC(C)C)CC(C)(C)N2 ?
97 % of control

# repeat for CCC1C(=O)OCC1Cc1cncn1C (configuration not stated)
98 % of control

Item: Cc1cnn(-c2ccccc2)[n+]1[O-]
102 % of control

Same question, O=C(O)C[n+]1cccc2ccccc21 this time
87 % of control

Same again, this time with CCN(CC)CCNN
103 % of control

Try this compound next: CC(C)C1OCN2C(C)CCCC12 (configuration not stated)
111 % of control

Same for CN=C(C)NO
99 % of control

Please answer likewise for CCN(CC)CCC(=O)c1ccc(OC)c2ccccc12
103 % of control

---

- Test system: P388 leukemia ip, CD2F1 mice, survival T/C
- EXPERIMENT SUMMARY: NCI In Vivo Anticancer Drug Screen. Data for tumor model P388 Leukemia (intraperitoneal) in CD2F1 (CDF1) mice
- CONDITION INFO: endpoint: median survival time; dose: 25.0 mg/kg/injection; schedule: Q01DX009 (ip); vehicle: Klucel (hydroxypropylcellulose) (HPC); higher = longer survival
Toxic doses and inconclusive results are not listed.
ATTRIBUTE MEASURED: T/C

Solved cases (2 shown):
CSc1cnc(N)s1; 115 % of control
N#CC(Br)(C#N)Cc1ccccc1; 87 % of control

The record that follows has no T/C shown yet.
Would you mind telling me what T/C value was observed for C=CCSC(=S)Nc1nc2ccc([N+](=O)[O-])cc2s1 ?
103 % of control

---

- Test system: P388 leukemia ip, CD2F1 mice, survival T/C
- EXPERIMENT SUMMARY: NCI In Vivo Anticancer Drug Screen. Data for tumor model P388 Leukemia (intraperitoneal) in CD2F1 (CDF1) mice
- CONDITION INFO: endpoint: median survival time; dose: 50.0 mg/kg/injection; schedule: Q04DX003 (ip); vehicle: saline
Inconclusive results and toxic doses are left out. Rule for the calls: active = survival T/C of 150% or more; inactive = T/C below 125% in these data.
Outcomes you can answer with include only these: active, inactive

Example cases with answers are listed next.
C/C(=C/c1cc(Br)c(O)c(Br)c1)[N+](=O)[O-]; inactive
O=C(O)c1ccc[nH]c1=O; inactive
Cn1c(=O)ccc2ccccc21; inactive

Now consider the entry below.
Per the assay record, what outcome was assigned to N#Cc1ccccc1NN=Nc1ccccc1-c1nc(N)nc(N)n1 ?
active

---

- System: P388 leukemia ip, CD2F1 mice, survival T/C
- EXPERIMENT SUMMARY: NCI In Vivo Anticancer Drug Screen. Data for tumor model P388 Leukemia (intraperitoneal) in CD2F1 (CDF1) mice
- CONDITION INFO: endpoint: median survival time; dose: 12.5 mg/kg/injection; schedule: Q04DX002 (ip); vehicle: saline with Tween-80; higher = longer survival
Toxic doses and inconclusive results are not listed.
T/C by entry:

Clc1ccc2c(cnc3ccccc32)n1; 102 % of control
c1csc(-c2n[se]c(-c3cccs3)n2)c1; 99 % of control
[I][Pt+2][I].[NH-]C(c1ccccc1)C([NH-])c1ccccc1 (centres undefined); 102 % of control

API: the following record is the query input.
Record request: T/C value, item COc1cc([C@H]2c3cc4c(cc3C[C@H]3COC(=O)[C@@H]32)OCO4)cc(OC)c1OC
92 % of control

---

- Test system: P388 leukemia ip, CD2F1 mice, survival T/C
- EXPERIMENT SUMMARY: NCI In Vivo Anticancer Drug Screen. Data for tumor model P388 Leukemia (intraperitoneal) in CD2F1 (CDF1) mice
- CONDITION INFO: endpoint: median survival time; dose: 12.5 mg/kg/injection; schedule: Q04DX003 (ip); vehicle: water
Inconclusive results and toxic doses are left out. The calls were made as follows: active = survival T/C of 150% or more; inactive = T/C below 125% in these data.
Your reply should match one of these outcome classes. active, inactive

COc1cccc2c1C(=O)c1c(O)c3c(c(O)c1C2=O)C[C@@](O)(C(C)=O)C[C@@H]3OC1CC(O)C(O)C(C)O1 (some centres undefined); inactive
COc1cccc2c1C(=O)c1c(O)c(COC3CC(N)C(O)C(C)O3)cc(O)c1C2=O (centres undefined); inactive
CCN(CC)CC[n+]1ccc2c(C)c3[nH]c4ccc(O)cc4c3c(C)c2c1; active

Tell me the recorded outcome of this test for [NH-]C(CO)C(=O)O.[NH-]C(CO)C(=O)O.[Pd+2] (centres undefined) .
inactive

---

- System: P388 leukemia ip, CD2F1 mice, survival T/C
- EXPERIMENT SUMMARY: NCI In Vivo Anticancer Drug Screen. Data for tumor model P388 Leukemia (intraperitoneal) in CD2F1 (CDF1) mice
- CONDITION INFO: endpoint: median survival time; dose: 50.0 mg/kg/injection; schedule: Q01DX005 (ip); vehicle: Klucel (hydroxypropylcellulose) (HPC); higher = longer survival
Toxic doses and inconclusive results are not listed.
ATTRIBUTE MEASURED: T/C

Known results for compounds:
CC1Cc2ccccc2/C1=N/NC(N)=O (stereo unspecified); 103 % of control
COc1ccc(C(=O)C(CCC(=O)/C=C/c2ccccc2)S(C)(=O)=O)cc1 (stereo unspecified); 105 % of control
[N-]=[N+]=NC1(N=[N+]=[N-])C(=O)Nc2ccc(Cl)cc2C1=O (stereo unspecified); 107 % of control
O=[N+]([O-])c1ccccc1N/N=C\c1c(Cl)[nH]c2ccccc12; 90 % of control
O=C1C=C2CCCCCCCCC(C1)C2 (stereo unspecified); 99 % of control
CCCCN(c1ccc(Br)cc1)c1nc(N)nc(N)c1N=O; 99 % of control
CCC(C)C(NC(=O)OCC1c2ccccc2-c2ccccc21)C(=O)O (stereo unspecified); 100 % of control
O=C(O)c1c2c(nc3ccccc13)-c1ccccc1C2; 102 % of control
NN/C(N)=N/S(=O)(=O)c1ccccc1; 107 % of control
COc1ccc(N2C(=O)c3ccc4c5ccc6c7c(ccc(c8ccc(c3c48)C2=O)c75)C(=O)N(C)C6=O)cc1; 97 % of control

Here's the next entry for you.
For the compound shown here, COc1ccc(/C(=C/c2ccc([N+](=O)[O-])cc2)C(=O)O)cc1 , give the reported T/C.
105 % of control

---

Listed here: items and their measured T/C.
- System: P388 leukemia ip, CD2F1 mice, survival T/C
- EXPERIMENT SUMMARY: NCI In Vivo Anticancer Drug Screen. Data for tumor model P388 Leukemia (intraperitoneal) in CD2F1 (CDF1) mice
- CONDITION INFO: endpoint: median survival time; dose: 50.0 mg/kg/injection; schedule: Q01DX009 (ip); vehicle: saline; higher = longer survival
Inconclusive results and toxic doses are left out.

# annotated cases, reported T/C shown
Cc1cc(Br)ccc1N=Cc1ccc(C=Nc2ccc(Br)cc2C)cc1; 90 % of control
NC(Cc1ccccc1)C(=O)OCN1C(=O)C2C3C=CC(C2C1=O)C1C2C(=O)N(COC(=O)C(N)Cc4ccccc4)C(=O)C2C31 (stereo not drawn); 110 % of control
Nc1ccc(N2CCSCC2)nc1; 104 % of control
CC(C)(N)CNc1ccccc1; 117 % of control

# lookup: T/C of CCN(CC)C(=NC(C)(C)C)c1ccccc1
99 % of control

Proceed to Nc1ccccc1SCc1csc(-c2ccc(Cl)cc2)n1
103 % of control

Same lookup for CC(C)N1CCOC(c2cccc(C(F)(F)F)c2)C1 (stereo not drawn) , please.
101 % of control

Lookup CC1C2CCC3C4CC=C5CC(N(C)C)CCC5(C)C4CCC32CN1C (stereo not drawn)
88 % of control

# repeat for NCC=C1C2CC3CC(C2)CC1C3
103 % of control
